Origin of measurements: PubChem BioAssay (NCI)

Tested on: UO-31 renal
Test: NCI-60 one-dose screen, 48 h (100 = growth as untreated, 0 = no growth, -100 = all killed)
Details: 10 µM
This is part of a sample that, as a whole, favours compounds with a hit. Of some 83,000 tested, about 20% had one in any assay.
OBSERVED PROPERTY: growth (%)
# output: bare number, implied unit %

What the record says about Cc1ccc(/C=C(\C#N)n2nnc3c(F)cccc32)cc1 : growth is 15.2

What the record says about COc1ccc(-c2ccc(/C=N/NC(=O)c3[nH]c4ccc(Br)cc4c3-c3ccccc3)o2)cc1 : growth is 43.9

What the record says about COc1ccc(-c2nc(S(=O)(=O)c3ccc(C)cc3)c(S(=O)(=O)CC(=O)N(C)Cc3ccccc3)o2)cc1 : growth is 34.8
